System: NCI-H226
assay procedure: NCI tumour cell line growth inhibition, 48 h
The source made the active and inactive calls. No stated cut-off is given here; in the data, active = GI50 up to about 1.1 µM and inactive = higher.
# Lookup of reported GI50 keyed by entry

Observe how each entry below is paired with its result.
CN1CC2=C(N=C(S)NC2c2ccccc2)/C(=C/c2ccccc2)C1 (stereo unspecified) | > 100 µM (inactive)
COC(=O)[C@]12CCC(C)(C)C[C@H]1[C@H]1C(=O)C=C3[C@@]4(C)C=C(C#N)C(=O)C(C)(C)[C@@H]4CC[C@@]3(C)[C@]1(C)CC2 | 0.0346 µM (active)
COC(=O)CCC1=CCC2(SC)C(=O)Nc3cccc1c32 (stereo unspecified) | > 100 µM (inactive)
Cn1c(=O)sc2cc(C(=S)N3CCN(c4ccccc4)CC3)ccc21 | 55.3 µM (inactive)
Oc1c(OCc2nnc(CCCCCCCCc3nnc(COc4ccc5ccccc5c4O)o3)o2)ccc2ccccc12 | > 100 µM (inactive)

Returns the measured GI50 for the input compound. Input: Nc1cccc2nnccc12 > 100 µM (inactive)

Returns the measured GI50 for the input compound. Input: C=C1C(=O)OC2/C=C(\C(=O)O)CC/C=C(\C)CC(OC(=O)/C=C(\C)CC)C12 (stereo unspecified) 17.9 µM (inactive)

Returns the measured GI50 for the input compound. Input: COc1cc(C2S/C(=C/c3ccccc3)C(=O)N2c2ccc([N+](=O)[O-])cc2)cc(OC)c1OC (stereo unspecified) 58.9 µM (inactive)

Returns the measured GI50 for the input compound. Input: CC1=NN(c2ccccc2Cl)C2(C1)SCC(=O)N2c1nc2ccccc2s1 (stereo unspecified) > 100 µM (inactive)

Returns the measured GI50 for the input compound. Input: CCn1c(-c2cc3ccccc3cc2OC(C)=O)n[nH]c1=S 38.6 µM (inactive)

Returns the measured GI50 for the input compound. Input: CCOC(=O)c1nc2cc(C(F)(F)F)ccc2nc1Nc1ccc(C(=O)OC)s1 27 µM (inactive)

Returns the measured GI50 for the input compound. Input: COc1cc(Nc2cnc3ccc(N)cc3n2)cc(OC)c1OC > 100 µM (inactive)

Returns the measured GI50 for the input compound. Input: c1ccc(C(Oc2noc3ccccc23)c2ccccc2)cc1 50.2 µM (inactive)

Returns the measured GI50 for the input compound. Input: O=C(Nc1cccc(C(F)(F)F)c1)C(=O)C1NC(=S)NC1=O (stereo unspecified) > 100 µM (inactive)

Returns the measured GI50 for the input compound. Input: O=c1[nH]c2ccc(CC(=S)N3CCN(c4ccccc4)CC3)cc2o1 > 42 µM (inactive)

Returns the measured GI50 for the input compound. Input: Cc1ccc(C)c(NC(=O)C(=O)C(C(=O)c2ccc3ccccc3c2)C2OC(=O)c3ccccc32)c1 (stereo unspecified) 2.44 µM (inactive)

Returns the measured GI50 for the input compound. Input: Cc1cccc(NC(=O)CC2C(=O)Nc3ccccc3S2(=O)=O)c1C (stereo unspecified) 25 µM (inactive)

Returns the measured GI50 for the input compound. Input: CCOC(=O)C1=C(OS(=O)(=O)C(F)(F)F)CCCC1 > 100 µM (inactive)

Returns the measured GI50 for the input compound. Input: COc1ccc(-n2sc3ncc([N+](=O)[O-])cc3c2=O)cc1 > 100 µM (inactive)

Returns the measured GI50 for the input compound. Input: O=C(NC(=S)Nc1ccc([N+](=O)[O-])cc1)c1ccc2c(c1)Sc1ccccc1O2 > 100 µM (inactive)

Returns the measured GI50 for the input compound. Input: CNC(=O)N1CN(c2ccccc2)C2(CCN(CCCC3(c4ccc(F)cc4)OCCO3)CC2)C1=O > 100 µM (inactive)
